target of assay: IGF-BP5 (UniProt P24593 21-272)
Sequence (P24593 21-272 limits assumed): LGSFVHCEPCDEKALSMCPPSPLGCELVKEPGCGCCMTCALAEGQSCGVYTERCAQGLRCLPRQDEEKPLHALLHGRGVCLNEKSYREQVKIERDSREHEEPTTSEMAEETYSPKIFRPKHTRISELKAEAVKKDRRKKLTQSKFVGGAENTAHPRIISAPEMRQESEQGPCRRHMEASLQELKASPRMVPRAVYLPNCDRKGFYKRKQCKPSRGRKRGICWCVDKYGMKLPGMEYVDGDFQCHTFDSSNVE
protocol: SPR, Fg β15-66 on the chip, cytokine injected (methods as Example 5), Langmuir fit
measured parameter: Kd (nM)
# unit: nM | format: bare number

# Kd (binder: Fg β15-66 (other, Made as a GST fusion; GST was cleaved off; also called TG-Fg β15-66; fibrinogen β15-66 domain) GSNQEQVSPLGHRPLDKKREEAPSLRPAPPPISGGGYRARPAKAAATQKKVERKAPDAGGCGHHHHHH ) is 19.6

Data origin: patent US20140011978A1
